Reported melting point values are given for each entry in this list.

A selection of reference data follows.
Chemical string	Metric name	Result
C[C@H]1CN(c2ccc3cc(-c4cc5ccccc5o4)c(=O)oc3c2)CCN1	melting point	192 to 194 °C
Cc1csc(-c2cc3ccc(N4CCN[C@@H](C)C4)cc3oc2=O)n1	melting point	194 to 199 °C
Cc1cn2cc(-c3cc4ccc(N5CCN(CCO)CC5)cc4oc3=O)nc2c(C)n1	melting point	231 to 233 °C
O=c1oc2cc(CN3CCNCC3)ccc2cc1-c1nc2c(Cl)cccc2s1	melting point	222 to 226 °C
Cc1cn2cc(-c3cc4ccc(N5C[C@@H](C)N[C@@H](C)C5)cc4oc3=O)nc2cn1	melting point	249 to 250 °C

Exam item: Given the molecule CCN1CCN(c2cc(F)c3cc(-c4cn5cc(C)nc(C)c5n4)c(=O)oc3c2)CC1 , what is its reported melting point?
Marked response: 232 to 234 °C
